Assay: in vivo
Conditions: C57BL/6, mouse, sc
READOUT_NAME: LD50 at 48 h
Please give the number followed by its unit.

Query: Record request: LD50 at 48 h value, item [O-][S+]1CCCCS1 (stereo not shown) [S-XL6, 1,2-dithiane-1-oxide]
Response: 275 mg/kg
